Biological target: DAT (h) (Homo sapiens, UniProt Q01959)
Construct: host or cells: CHO cells
Sequence (Q01959 whole entry): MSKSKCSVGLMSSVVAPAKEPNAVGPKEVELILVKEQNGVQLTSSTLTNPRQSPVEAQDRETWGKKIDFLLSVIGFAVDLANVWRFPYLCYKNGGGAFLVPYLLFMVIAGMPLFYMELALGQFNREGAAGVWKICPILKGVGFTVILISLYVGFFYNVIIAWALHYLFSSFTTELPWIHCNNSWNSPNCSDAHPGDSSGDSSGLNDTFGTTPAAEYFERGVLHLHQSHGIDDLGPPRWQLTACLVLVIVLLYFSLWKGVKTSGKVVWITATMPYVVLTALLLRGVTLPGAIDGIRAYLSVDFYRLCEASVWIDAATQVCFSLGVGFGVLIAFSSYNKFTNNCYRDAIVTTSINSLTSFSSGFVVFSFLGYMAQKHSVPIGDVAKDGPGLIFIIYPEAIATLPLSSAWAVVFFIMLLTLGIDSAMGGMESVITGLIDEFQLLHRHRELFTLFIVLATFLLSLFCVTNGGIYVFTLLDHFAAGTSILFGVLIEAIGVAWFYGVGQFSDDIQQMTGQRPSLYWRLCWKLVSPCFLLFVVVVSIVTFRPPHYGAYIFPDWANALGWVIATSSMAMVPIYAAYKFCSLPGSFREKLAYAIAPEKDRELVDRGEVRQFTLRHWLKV
Assay: Competition assay to measure binding affinity at dopamine transporter (DAT)
Settings: test ligand 10 μM; [3H]BTCP 4 nM
Quick reference for DAT, percent of control-specific binding among some compounds
readout_label: DAT, percent of control-specific binding (%)

compound=COc1cc2c(cc1CCNCCO)OCO2 unit_abbrev=% test_value=5
compound=O=C(Cc1c(Br)ccc2c1OCO2)N1CCCC1 unit_abbrev=% test_value=0
compound=O=C(Cc1ccc2c(c1)OC(F)(F)O2)N1CCCC1 unit_abbrev=% test_value=5
compound=CC(C)(C)OC(=O)NC1CN(CCc2ccc3c(c2)OCO3)C1 unit_abbrev=% test_value=39
compound=Brc1cc2c(cc1CCN1CCCC1)OCO2 unit_abbrev=% test_value=11
compound="COc1cc2c(cc1CNC(C)Cc1ccc3c(c1)OCO3)OCO2 (stereo not drawn)" unit_abbrev=% test_value=84
compound="CC(NC(C)(C)C)C(=O)c1cccc(Cl)c1 (stereo not drawn) [Bupropion, reference compound]" unit_abbrev=% test_value=92
compound=COc1cc2c(cc1CC(=O)N1CCCC1)OCO2 unit_abbrev=% test_value=29
compound="N#Cc1ccc2[nH]cc(CCCCN3CCN(c4ccc5oc(C(N)=O)cc5c4)CC3)c2c1 [Vilazodone, reference compound]" unit_abbrev=% test_value=98
compound=CCOc1c(OC)cc(CCN)cc1OC unit_abbrev=% test_value=0
compound="CC(Cc1ccc2c(c1)OCCO2)NCc1ccc2c(c1)OCCO2 (stereo not drawn)" unit_abbrev=% test_value=90
compound="O=c1n(CCCN2CCN(c3cccc(Cl)c3)CC2)nc2ccccn12 [Trazodone, reference compound]" unit_abbrev=% test_value=24
compound=FC1(F)Oc2ccc(CCN3CCCC3)cc2O1 unit_abbrev=% test_value=0
compound="N[C@@H](Cc1c[nH]c2ccccc12)C(=O)O [tryptophan, reference compound]" unit_abbrev=% test_value=1
compound=OCCNCCc1cc2c(cc1Br)OCO2 unit_abbrev=% test_value=0
compound="CC(Cc1ccc2c(c1)OCO2)NCc1cc2c(cc1Br)OCO2 (stereo not drawn)" unit_abbrev=% test_value=79
compound="CC(Cc1ccc2c(c1)OCCO2)NCc1ccccc1 (stereo not drawn)" unit_abbrev=% test_value=91
compound="CON(C)C(C)Cc1ccc2c(c1)OCO2 (stereo not drawn)" unit_abbrev=% test_value=5
compound="COc1ccc2cccc(CCNC(C)=O)c2c1 [Agomelatine, reference compound]" unit_abbrev=% test_value=1
compound=COc1cc2c(cc1CC(=O)NCCO)OCO2 unit_abbrev=% test_value=0
compound="CC(Cc1ccc2c(c1)OCCO2)NCc1cc2c(cc1Br)OCO2 (stereo not drawn)" unit_abbrev=% test_value=75
compound="CC(Cc1ccc2c(c1)OCO2)N1CCC1 (stereo not drawn)" unit_abbrev=% test_value=86
compound=COc1cc(CCN)cc(OC)c1OC unit_abbrev=% test_value=−1
compound="CC(Cc1ccc2c(c1)OCO2)NN(C)C (stereo not drawn)" unit_abbrev=% test_value=38
compound="COc1cc2c(cc1CNC(C)Cc1ccc3c(c1)OCCO3)OCO2 (stereo not drawn)" unit_abbrev=% test_value=84
compound="CCCOc1c(OC)cc(CCN)cc1OC [proscaline, reference compound]" unit_abbrev=% test_value=−2
compound="N#CC(Cc1ccc2c(c1)OCO2)NC1CCC1 (stereo not drawn)" unit_abbrev=% test_value=39
compound="COc1cc(CCN)c(OC)cc1Br [2C-B, reference compound]" unit_abbrev=% test_value=5
compound="CC(Cc1ccc2c(c1)OCCO2)NC1CCC1 (stereo not drawn)" unit_abbrev=% test_value=84
compound="Cc1ccc(Sc2ccccc2N2CCNCC2)c(C)c1 [vortioxetine, reference compound]" unit_abbrev=% test_value=90
compound="COc1ccc2[nH]cc(CCNC(C)=O)c2c1 [Melatonin, reference compound]" unit_abbrev=% test_value=4
compound=O=C(Cc1cc2c(cc1Br)OCO2)NCCO unit_abbrev=% test_value=0
compound="CC(Cc1ccc2c(c1)OCO2)NC1CCC1 (stereo not drawn)" unit_abbrev=% test_value=98
compound="COc1cc(CC(C)N)c(OC)cc1Br (stereo not drawn) [DOB, reference compound]" unit_abbrev=% test_value=3
compound="CNC(C)Cc1ccc2c(c1)OCO2 (stereo not drawn) [MDMA, reference compound]" unit_abbrev=% test_value=28
compound="CN(C)CCCN1c2ccccc2CCc2ccccc21 [Imipramine, reference compound]" unit_abbrev=% test_value=23
compound=c1cc2c(cc1CCN1CCOCC1)OCO2 unit_abbrev=% test_value=18
compound="CC(Cc1ccc2c(c1)OCO2)N1CC(NC(=O)OC(C)(C)C)C1 (stereo not drawn)" unit_abbrev=% test_value=20
compound="CC(Cc1ccc2c(c1)OCCO2)NCc1ccc2c(c1)OCO2 (stereo not drawn)" unit_abbrev=% test_value=92
compound=COc1cc2c(cc1CCN1CCCC1)OCO2 unit_abbrev=% test_value=0
compound="NCCc1c[nH]c2ccc(O)cc12 [serotonin, reference compound]" unit_abbrev=% test_value=8
compound="CC(Cc1ccc2c(c1)OCCO2)N1CC(NC(=O)OC(C)(C)C)C1 (stereo not drawn)" unit_abbrev=% test_value=16
